Measured Metric: logP

>>> measured_number("Cc1ccc(C(=O)N(C)N)cc1")
1.36

a. O=C(c1ccccc1)N(NC(=S)Nc1ccccc1)c1ccccc1
b. NN(C(=O)c1ccc([N+](=O)[O-])cc1)c1ccccc1
c. CN(N)C(=O)c1ccccc1
Order field: logP | Direction: descending (largest first) // rank by listing labels in the order requested
a, b, c

a. CC=NN(C(=O)c1ccc([N+](=O)[O-])cc1)c1ccccc1
b. COc1ccc(C(=O)N(C)N)cc1
Between a and b , whose recorded logP is greater? Pick one and reply with its label.
a
(a: 3.08, b: 1)

###

Measured Metric: logP

>>> measured_number("Cc1ccc(C(=O)N(N)c2ccccc2)cc1")
3

P. COc1ccc(C(=O)N(N)c2ccccc2)cc1
Q. CN(N)C(=O)c1ccc([N+](=O)[O-])cc1
R. Cc1ccc(C(=O)N(NC(=S)Nc2ccccc2)c2ccccc2)cc1
Order field: logP | Direction: descending (largest first) // rank by listing labels in the order requested
R, P, Q
(R: 4.08, P: 2.83, Q: 0.75)

###

Measured Metric: logP

Check out these entries, answers already filled in.
>>> measured_number("CC=NN(C(=O)c1ccc(OC)cc1)c1ccccc1")
3.18
>>> measured_number("CC=NN(C(=O)c1ccc(C)cc1)c1ccccc1")
3.6
>>> measured_number("CN(NC(=S)Nc1ccccc1)C(=O)c1ccccc1")
2.47
>>> measured_number("CC=NN(C(=O)c1ccccc1)c1ccccc1")
2.76
>>> measured_number("NN(C(=O)c1ccccc1)c1ccccc1")
2.3

a. O=C(c1ccc([N+](=O)[O-])cc1)N(NC(=S)Nc1ccccc1)c1ccccc1
b. COc1ccc(C(=O)N(C)NC(=S)Nc2ccccc2)cc1
Dear colleague, could you let me know whether a or b has the lower recorded logP? Thanks. Pick one and reply with its label.
b
